assay.overview: Renal clearance (CL) of free adducts and unmodified amino acids deduced from plasma and spot urine
Type: in vivo, human
condition.parameters: children with ASD with respect to healthy controls
attribute.measured: renal clearance, change

Answered examples (5):
                                   molecule  value_measured
0                  N[C@@H](Cc1ccccc1)C(=O)O       decreased
1                  C[C@@H](O)[C@H](N)C(=O)O       decreased
2  N[C@@H](CCCCN1C[C@@H](O)[C@@H](O)CC2NC(=NCCC[C@H](N)C(=O)O)N=C21)C(=O)O (stereo partly drawn)       decreased
3  N[C@@H](CCC(=O)O)C(=O)O [glu, glutamate]       decreased
4                      CC(C)C[C@H](N)C(=O)O       decreased

Fill in renal clearance, change for record NC(Cc1ccc(O)c(-c2cc(CC(N)C(=O)O)ccc2O)c1)C(=O)O (stereo not drawn)
decreased

Fill in renal clearance, change for record NC(CC(=O)c1ccccc1NC=O)C(=O)O (stereo not drawn)
increased

Fill in renal clearance, change for record N=C(N)NCCC[C@H](N)C(=O)O
decreased

Fill in renal clearance, change for record N[C@@H](Cc1c[nH]c2ccccc12)C(=O)O
increased
